Reference for the values: patent US20260125446A1

- target.of.assay: T1, mouse serum albumin (mouse, UniProt P07724 25-608)
- T1 construct: Bought protein, immobilized on a CM5 chip by amine coupling; also called Mouse SA
- measurement.protocol: SPR (Biacore 8K), albumin immobilized on CM5 chip, 25 C, 1:1 kinetic fit
// koff lookup, one value per entry
Your answer should be a plain number; it is taken to be in s⁻¹.

Reference set, count: 2
{"binder": "RLN Analog 10 (other, Single-chain fusion: RLN2 B chain (desB1) - L2 - RLN2 A chain - (PGPQ)8 L1 - VHH (C-terminal)) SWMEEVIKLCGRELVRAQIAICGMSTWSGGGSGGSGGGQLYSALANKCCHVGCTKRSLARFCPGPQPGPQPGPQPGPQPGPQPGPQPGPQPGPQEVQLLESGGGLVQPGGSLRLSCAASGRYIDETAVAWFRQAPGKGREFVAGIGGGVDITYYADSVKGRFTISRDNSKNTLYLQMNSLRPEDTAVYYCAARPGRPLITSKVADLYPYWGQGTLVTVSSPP", "koff / s⁻¹": 0.0072}
{"binder": "RLN Analog 7 (other, Single-chain fusion: VHH - (G4Q)5 L1 - RLN2 B chain (desB1) - L2 - RLN2 A chain) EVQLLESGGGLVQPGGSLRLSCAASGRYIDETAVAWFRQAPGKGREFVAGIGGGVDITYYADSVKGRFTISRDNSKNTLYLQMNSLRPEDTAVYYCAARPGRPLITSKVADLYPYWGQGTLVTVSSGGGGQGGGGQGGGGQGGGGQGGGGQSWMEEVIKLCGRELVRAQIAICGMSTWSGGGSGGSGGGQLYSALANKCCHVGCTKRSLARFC", "koff / s⁻¹": 0.0041}

Would you kindly look at the next entry?
// query Quick check: koff of RLN Analog 11 (other, Single-chain fusion: VHH - (G4Q)5 L1 - RLN2 B chain (desB1) - L2 of thirteen residues - RLN2 A chain (desA1-4)) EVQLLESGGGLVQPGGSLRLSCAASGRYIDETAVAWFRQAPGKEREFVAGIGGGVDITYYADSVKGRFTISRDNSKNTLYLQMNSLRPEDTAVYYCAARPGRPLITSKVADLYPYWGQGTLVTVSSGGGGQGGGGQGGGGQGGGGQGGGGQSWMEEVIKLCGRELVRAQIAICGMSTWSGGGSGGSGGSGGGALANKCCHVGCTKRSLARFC ?
// result 0.005
